The values you see were collected from the supplement of paper PMC8728848.

- system-tested: Gal(b1-3)GalNAc(b1-3)Gal(a1-4)Gal(b1-4)Glc
- measurement-notes: glycan array binding signal (z-score within array); higher = stronger binding
- settings: glycan notation: IUPAC condensed, linker removed
This is one part of a sample in which the strongest signals are shown more often than they occur.
observable: glycan array binding signal (z-score)
Respond using a number only.

{"binder": "Ecp6 (Cladosporium fulvum), B3VBK9 (protein) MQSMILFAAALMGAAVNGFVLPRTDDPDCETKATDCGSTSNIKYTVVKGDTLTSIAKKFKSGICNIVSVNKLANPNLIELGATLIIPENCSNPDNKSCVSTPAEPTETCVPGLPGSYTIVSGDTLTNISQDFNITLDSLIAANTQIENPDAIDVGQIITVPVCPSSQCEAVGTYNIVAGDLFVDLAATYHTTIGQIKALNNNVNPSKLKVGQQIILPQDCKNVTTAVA", "observed-value": -0.064}
{"binder": "PfulAvr4 (Pseudocercospora fuligena) (protein) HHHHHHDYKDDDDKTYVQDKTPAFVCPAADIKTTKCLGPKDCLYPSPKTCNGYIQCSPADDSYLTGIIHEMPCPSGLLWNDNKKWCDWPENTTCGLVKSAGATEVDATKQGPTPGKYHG", "observed-value": -0.044}
{"binder": "CIH1 (Colletotrichum higginsianum) (protein) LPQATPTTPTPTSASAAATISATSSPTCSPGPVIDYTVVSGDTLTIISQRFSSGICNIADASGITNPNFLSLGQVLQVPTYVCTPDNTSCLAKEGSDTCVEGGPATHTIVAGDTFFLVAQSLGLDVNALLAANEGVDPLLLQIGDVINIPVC", "observed-value": -0.071}

(Q) Request the reported glycan array binding signal (z-score) associated with Epa3 (Candida glabrata), Q6VBI8_CANGB (protein) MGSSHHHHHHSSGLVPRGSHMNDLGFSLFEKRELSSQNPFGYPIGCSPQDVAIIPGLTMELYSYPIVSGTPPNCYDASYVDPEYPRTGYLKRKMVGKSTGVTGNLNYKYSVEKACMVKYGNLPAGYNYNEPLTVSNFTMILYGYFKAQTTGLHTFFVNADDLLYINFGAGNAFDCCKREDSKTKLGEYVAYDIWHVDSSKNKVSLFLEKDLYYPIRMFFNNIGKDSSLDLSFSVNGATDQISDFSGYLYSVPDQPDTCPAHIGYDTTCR
(A) 3.07

(Q) What do you get for PNGase F (Flavobacterium meningosepticum) (protein) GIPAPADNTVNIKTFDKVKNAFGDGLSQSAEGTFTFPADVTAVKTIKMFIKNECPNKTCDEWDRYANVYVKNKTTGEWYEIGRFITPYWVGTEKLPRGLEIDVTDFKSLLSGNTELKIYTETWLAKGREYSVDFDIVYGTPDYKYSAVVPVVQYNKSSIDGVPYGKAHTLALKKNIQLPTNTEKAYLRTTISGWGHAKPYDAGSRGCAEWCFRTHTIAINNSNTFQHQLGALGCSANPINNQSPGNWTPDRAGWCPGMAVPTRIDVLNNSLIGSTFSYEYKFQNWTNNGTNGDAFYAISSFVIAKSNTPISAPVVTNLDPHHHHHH ?
(A) 0.036
